Taken from ChEMBL document CHEMBL1201862.

# system_tested: Heat shock factor protein 1 (Mus musculus, UniProt P38532)
# Sequence (P38532 whole entry): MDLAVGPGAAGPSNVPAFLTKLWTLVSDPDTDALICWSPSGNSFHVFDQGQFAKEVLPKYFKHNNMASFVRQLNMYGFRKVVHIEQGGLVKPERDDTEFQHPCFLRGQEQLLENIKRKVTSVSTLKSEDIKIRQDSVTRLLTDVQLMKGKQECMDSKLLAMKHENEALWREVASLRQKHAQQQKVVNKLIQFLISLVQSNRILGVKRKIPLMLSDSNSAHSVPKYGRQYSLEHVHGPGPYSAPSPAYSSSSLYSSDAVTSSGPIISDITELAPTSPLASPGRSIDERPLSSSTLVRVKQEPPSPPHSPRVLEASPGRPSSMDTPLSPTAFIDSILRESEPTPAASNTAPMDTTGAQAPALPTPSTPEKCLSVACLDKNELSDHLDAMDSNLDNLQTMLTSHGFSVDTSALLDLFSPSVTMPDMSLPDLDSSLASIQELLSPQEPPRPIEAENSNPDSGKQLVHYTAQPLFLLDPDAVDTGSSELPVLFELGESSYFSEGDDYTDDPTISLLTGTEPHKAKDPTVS
# assay_overview: decrease of HSF1-responsive luciferase luminescence – cell-based, NIH3T3, dose retest, confirmation (AID 2382);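 further: NIH3T3 fibroblasts with HSF1-driven luciferase reporter stressed by proteasome inhibitor MG132; luminescence from HSF1-driven luciferase expression after 8 hours of MG132 stress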
# Assay type: functional
Calls of active or inactive are those of the source.
Field: EC50. Provide a value for each of the compounds that follow.

Cc1cc([N+](=O)[O-])c2ccccc2[n+]1[O-]; 6.35 µM (active)

Below are 6 compounds. Give each one its EC50.
1. CCCCN(Cc1ccco1)C(=O)Cn1ncc2c(=O)oc3ccc(C)cc3c21
2. CCc1cc[n+](CC(=O)Nc2ccc(Cl)cc2Cl)cc1
3. COCCNC(=O)C(OC(=O)c1cccs1)c1ccccc1 (centres undefined)
4. CCOc1ccc(CNC(=O)c2ccc3nc(N4CCOCC4)sc3c2)cc1
5. CN(c1ccccc1)c1ncccn1
6. C=CCOc1ccn(C)c(=O)n1

Given back:
1: > 195 µM (not active); 2: > 195 µM (not active); 3: > 195 µM (not active); 4: > 195 µM (not active); 5: > 195 µM (not active); 6: > 195 µM (not active)

Give EC50 for each of the items listed below.
1. CNC(=S)N(CCc1c(C)[nH]c2ccc(C)cc12)Cc1cc(OC)c(OC)c(OC)c1
2. O=C(Cc1ccsc1)Nc1ccc(S(=O)(=O)C(F)F)cc1
3. Cc1cc(C(=O)CN2CCC(C)CC2)c(C)n1-c1ccccc1F
4. CC(=O)C1=C(O)C(=O)N(Cc2cccnc2)C1c1ccc(O)cc1 (centres undefined)
5. Cc1nnc(N/N=C/c2cc(C)n(-c3ccc(F)cc3)c2C)n1N
6. COc1ccc(-n2nc(C)cc2N)cc1
7. CN1CCc2c(sc3c2C(=O)NC(c2ccc(-c4ccc(Cl)cc4)o2)N3)C1 (centres undefined)

Given back:
> 195 µM (not active)
> 195 µM (not active)
< 0.16 µM (active)
> 195 µM (not active)
29.7 µM (active)
> 195 µM (not active)
> 195 µM (not active)

---

Record form. Attribute: AC50. Fill in for each entry.
# system_tested: Cytochrome P450 2C9 (Homo sapiens, UniProt P11712)
# Sequence (P11712 whole entry): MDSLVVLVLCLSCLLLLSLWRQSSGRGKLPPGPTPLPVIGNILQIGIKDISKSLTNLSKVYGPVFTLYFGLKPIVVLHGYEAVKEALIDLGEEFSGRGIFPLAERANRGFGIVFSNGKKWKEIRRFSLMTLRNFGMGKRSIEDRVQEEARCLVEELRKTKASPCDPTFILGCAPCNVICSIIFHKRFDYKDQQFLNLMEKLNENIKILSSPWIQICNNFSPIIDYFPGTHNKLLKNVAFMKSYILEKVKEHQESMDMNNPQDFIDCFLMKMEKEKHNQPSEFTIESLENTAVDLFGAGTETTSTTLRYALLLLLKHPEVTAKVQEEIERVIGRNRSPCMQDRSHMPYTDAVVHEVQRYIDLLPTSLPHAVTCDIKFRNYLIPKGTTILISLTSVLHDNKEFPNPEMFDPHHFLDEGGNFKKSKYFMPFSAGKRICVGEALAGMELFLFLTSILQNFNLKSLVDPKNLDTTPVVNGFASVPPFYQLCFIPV

Record AC50 per entry; entries follow.
1. COc1ccc(/C=N/OCc2nc3c4c(ncn3n2)Oc2ccc3ccccc3c2C4c2ccccc2)cc1 (stereo not given)
2. COc1ccc2sc3ccccc3c(=O)c2c1OC
3. Cc1ccc(OCC(=O)NC2=NCCS2)cc1
4. Cc1nc2cc(NC(=O)CSc3nc4c(C)cccc4cc3C#N)ccc2s1
5. COc1ccc(CNc2nc3nc4c(c(O)n3n2)CCC4)cc1
6. CCOc1cc(/C=N/NC(=O)c2cccc([N+](=O)[O-])c2)ccc1OS(=O)(=O)c1ccccc1
7. COc1ccc(S(=O)(=O)NC2(C(F)(F)F)N=C3SCCN3C2=O)cc1 (stereo not given)

Given back:
1. 1.26 µM (inconclusive)
2. 28.2 µM (inconclusive)
3. 10 µM (inconclusive)
4. 3.55 µM (inconclusive)
5. 22.4 µM (inconclusive)
6. 11.2 µM (inconclusive)
7. 28.2 µM (inconclusive)

---

I'd be grateful if you could share measured AC50 for these entries.
# system_tested: UniProt:P08684
# Sequence (P08684 whole entry): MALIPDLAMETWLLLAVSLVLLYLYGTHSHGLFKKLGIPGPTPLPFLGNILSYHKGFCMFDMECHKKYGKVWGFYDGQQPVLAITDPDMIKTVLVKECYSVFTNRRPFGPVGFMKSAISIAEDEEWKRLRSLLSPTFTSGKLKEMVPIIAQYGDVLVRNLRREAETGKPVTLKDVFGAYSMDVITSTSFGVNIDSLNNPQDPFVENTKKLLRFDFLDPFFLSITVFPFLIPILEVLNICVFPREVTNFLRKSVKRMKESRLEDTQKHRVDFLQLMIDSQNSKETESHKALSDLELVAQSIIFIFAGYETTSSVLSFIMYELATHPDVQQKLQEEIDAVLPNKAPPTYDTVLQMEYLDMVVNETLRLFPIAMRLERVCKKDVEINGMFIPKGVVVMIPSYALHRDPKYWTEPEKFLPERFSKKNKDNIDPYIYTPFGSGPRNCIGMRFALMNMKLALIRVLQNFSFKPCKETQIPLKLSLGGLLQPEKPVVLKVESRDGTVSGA
# condition_label: Potency

Check out these entries, answers already filled in.
CCOC(=O)OCC1OC(C#Cc2ccc(C)cc2C)C=CC1OC(=O)OCC (stereo unspecified); 3.98 µM (inconclusive)
COc1cc(C/C=C/c2ccccc2)c(OC)cc1O [VIOLASTYRENE]; 39.8 µM (inconclusive)

Batch of 4 molecules: report AC50 for each.
1. CCCCCCC#CC1C=CC(Oc2ccc(C=O)cc2)C(CO)O1 (stereo unspecified)
2. CCNC(=S)NCC
3. CN(C)c1ccc(C2(c3ccc(N(C)C)cc3)OC(=O)c3cc(N(C)C)ccc32)cc1
4. COC(=O)NC(c1cccs1)C(C(C)=O)C(=O)OC (stereo unspecified)

Given back:
1: 3.98 µM (inconclusive); 2: 6.31 µM (inconclusive); 3: 7.94 µM (inconclusive); 4: 3.98 µM (inconclusive)
